All figures here come from patent US12699094B2.

# target.of.assay: E. coli PanZ (PanZ-CFP fusion protein), SEQ ID NO: 1 (Escherichia coli)
# method.summary: Surface plasmon resonance binding to PanZ-CFP
# test.conditions: SPR, 1:1 Langmuir fit, average ± standard error, room temperature, pH 7.5
result.type: Kd (nM)
Answers are plain numbers, in nM.

# Kd (molecule: CC(=O)SCCNC(=O)CCNC(=O)[C@H](O)C(C)(C)COP(=O)(O)OP(=O)(O)OC[C@H]1O[C@@H](n2cnc3c(N)ncnc32)[C@H](O)[C@@H]1OP(=O)(O)O [acetyl-CoA, acetyl coenzyme A] ) is 1700
